Value source: paper PMC6234480

target: human recombinant TACE (TNFα converting enzyme) (human) (UniProt P78536)
Listed below: IC50 of inhibition of human TACE activity (SensoLyte 520 TACE fluorimetric kit) values for each entry.
Kindly answer with a numeric value in µM, unit omitted.

// lookup IC50 of inhibition of human TACE activity (SensoLyte 520 TACE fluorimetric kit) for TIMP3v2 (K22S/F34N TIMP3) (natural protein, additional glycosylation site (F34N), >95% occupancy by mass spectrometry; endogenous glycosylation site at Asn184) CTCSPSHPQDAFCNSDIVIRASVVGKKLVKEGPNGTLVYTIKQMKMYRGFTKMPHVQYIHTEASESLCGLKLEVNKYQYLLTGRVYDGKMYTGLCNFVERWDQLTLSQRKGLNYRYHLGCNCKIKSCYYLPCFVTSKNECLWTDMLSNFGYPGYQSKHYACIRQKGGYCSWYRGWAPPDKSIINATDP
0.341

// same read-out, input: v2‐PEG (TIMP3v2 PEGylated with 20 kDa polyethylene glycol) (natural protein, 20 kDa polyethylene glycol (PEG), site not stated; additional glycosylation site (F34N)) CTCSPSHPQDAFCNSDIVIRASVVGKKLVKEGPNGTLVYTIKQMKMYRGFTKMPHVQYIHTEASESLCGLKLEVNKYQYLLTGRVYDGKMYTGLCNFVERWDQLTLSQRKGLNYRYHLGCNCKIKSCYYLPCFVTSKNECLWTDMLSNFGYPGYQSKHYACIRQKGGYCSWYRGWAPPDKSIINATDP
0.123

What would you report for v82‐HSA (TIMP3v82 fused with human serum albumin) (protein, additional glycosylation sites) CTCSPSHPQDAFCNSDIVIRAKVVGKKLVKEGPFGTLVYTIKQMKMYRGFTKMPNVTYIHTEASESLCGLNLTVNKYQYLLTGRVYNGTMYTGLCNFVERWDQLTLSQRKGLNYTYHLGCNCKIKSCYYLPCFVTSKNECLWTDMLSNFGYPGYQSKHYACIRQKGGYCSWYRGWAPPDKSIINATDP ?
0.145

Next binder up: v2‐HSA (TIMP3v2 fused with human serum albumin) (protein, additional glycosylation site (F34N)) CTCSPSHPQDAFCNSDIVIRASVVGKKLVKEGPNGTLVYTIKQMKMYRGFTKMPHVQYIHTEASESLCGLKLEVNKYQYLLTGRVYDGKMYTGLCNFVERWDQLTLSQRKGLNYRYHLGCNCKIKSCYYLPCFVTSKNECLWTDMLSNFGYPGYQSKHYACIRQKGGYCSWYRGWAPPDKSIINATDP
6.8

And what about the binder Wild‐type TIMP3 (Tissue Inhibitor of Metalloproteinase 3) (natural protein, endogenous glycosylation site at Asn184) CTCSPSHPQDAFCNSDIVIRAKVVGKKLVKEGPFGTLVYTIKQMKMYRGFTKMPHVQYIHTEASESLCGLKLEVNKYQYLLTGRVYDGKMYTGLCNFVERWDQLTLSQRKGLNYRYHLGCNCKIKSCYYLPCFVTSKNECLWTDMLSNFGYPGYQSKHYACIRQKGGYCSWYRGWAPPDKSIINATDP ?
0.059

Also, N‐HSA (N‐TIMP3 fused with human serum albumin) (protein) CTCSPSHPQDAFCNSDIVIRAKVVGKKLVKEGPFGTLVYTIKQMKMYRGFTKMPHVQYIHTEASESLCGLKLEVNKYQYLLTGRVYDGKMYTGLCNFVERWDQLTLSQRKGLNYRYHLGC please.
0.195
